Substrate: CC(=O)Oc1ccc([N+](=O)[O-])cc1
assay.notes: purified protein
Format: biochemical, Dorea formicigenerans
stated.conditions: 10 mM Tris-HCl pH 8.4, 2.5% Triton X-100, 40 °C
measure: kcat (s⁻¹)
Expressed in s⁻¹, but write only the number.

Exam item: Please report the recorded kcat for DfFAE (Dorea formicigenerans; P186A) (protein, E. coli T7; trimeric by SEC (117 kDa)) MNQKKECMDVHVNGLKFHVQTFGSGVPIIMIMGLGAPGDKWKHNYELLSKWFWCIVPDNRGAGLSDKPEAESYTTEQMADDIIGIMDALDIKKAHVMGVSMGGAIAQQVALKVPDRVLSLILTSTFASVSPAFKKALNLICELKEDTDPAVLKQLNLWMTYGQYTQIHHPEKIEKSIEEDAAYPYAMPVYAYKAQCGACLSHNTAGRLHELKMPVLIAAGAKDLFMNIEKTMELVHGIPQAEFYLAPEGGHVHQWEYPEPYDSVVVGFLMKHTN .
Marked response: 11.3
